System: Plasma
Test: Plasma concentration in Sprague-Dawley rat assessed as 6-(5-chloropyrimidin-2-yl)-3-(4-((3,3-difluoro-1-hydroxycyclobutyl)methoxy)-3-methoxyphenyl)pyrrolo[1,2-f][1,2,4]triazin-4(3H)-one level at 10 mg/kg, po qd at 8 hrs
Type: ADME, organism-based
Settings: in vivo
readout.type: concentration (nM)
Output spec: scalar in nM, unitless text.

# input Field: concentration (Plasma). Entry: COc1cc(-n2cnn3cc(-c4ncc(Cl)cn4)cc3c2=O)ccc1OCC1(OC(=O)CN)CC(F)(F)C1
# output 1130

----------
Test system: Brain
Test: Drug concentration in Sprague-Dawley rat brain assessed as 6-(4-chlorophenyl)-3-(4-(2-hydroxypropoxy)-3-methoxyphenyl)pyrrolo[1,2-f][1,2,4]triazin-4(3H)-one level at 3 mg/kg, po qd after 10 days
Format: ADME, organism-based
Conditions: in vivo, 240 h, read-out: Drug uptake
readout.type: concentration (µM)
Output spec: scalar in µM, unitless text.

# input Field: concentration (Brain). Entry: COc1cc(-n2cnn3cc(-c4ccc(Cl)cc4)cc3c2=O)ccc1OCC(C)OC(=O)[C@@H](N)C(C)C (stereo partly specified)
# output 4.12
